tgt: PXR (NR1I2) (Rattus norvegicus, UniProt Q9R1A7)
assay_overview: Activation of rat PXR assessed as induction of PXR activity at 10 uM relative to control
protocol_conditions: read-out: Activity
parameter_measured: activity at 10 µM (%)

a = O=C1N(C2CCCCC2)CCC12CCCN2Cc1ccc(C(F)(F)F)cc1 (stereo not given)
b = CNC(=O)c1ccc(-c2ccc(CN3C[C@H](O)C[C@]34CCN(C3CCCCC3)C4=O)cc2)cn1
c = CC(C)N1C[C@H](O)C[C@]12CCN(C1CCCCC1)C2=O
d = CCNC(=O)c1ccc(-c2ccc(CN3CCCC34CCN(C3CCCCC3)C4=O)cc2)cn1 (stereo not given)
INPUT: Hello, I need these entries ordered by activity at 10 µM, highest reading first. Thanks! Reply with the labels, ordered as the question asks.
OUTPUT: d, a, b, c
(d: 31%, a: 12%, b: -0.3%, c: -0.5%)

a = O=C1N(C2CCCCC2)CCC12CCCN2Cc1ccc(Cl)cc1 (stereo not given)
b = O=C1N(C2CCCCC2)CC[C@]12C[C@@H](O)CN2CC1CCCCC1
c = CC1(O)CN(Cc2ccc(Cl)cc2)[C@@]2(CCN(C3CCCCC3)C2=O)C1 (stereo not given in full)
d = CC(C1CCC1)N1C[C@H](O)C[C@]12CCN(C1CCCCC1)C2=O (stereo not given in full)
INPUT: Sort ascending by activity at 10 µM. Reply with the labels, ordered as the question asks.
OUTPUT: d, b, a, c

A = O=C1N(C2CCCCC2)CC[C@@]12C[C@H](O)CN2Cc1ccc(Cl)cc1
B = CNC(=O)c1ccc(-c2ccc(CN3C[C@@H](F)C[C@]34CCN(C3CCCCC3)C4=O)cc2)cn1
INPUT: Kindly identify which of A and B has the larger recorded activity at 10 µM value. // return label of chosen record
OUTPUT: B
(B: 24%, A: 12%)

###

tgt: PXR (NR1I2) (Rattus norvegicus)
Sequence (Q9R1A7 whole entry): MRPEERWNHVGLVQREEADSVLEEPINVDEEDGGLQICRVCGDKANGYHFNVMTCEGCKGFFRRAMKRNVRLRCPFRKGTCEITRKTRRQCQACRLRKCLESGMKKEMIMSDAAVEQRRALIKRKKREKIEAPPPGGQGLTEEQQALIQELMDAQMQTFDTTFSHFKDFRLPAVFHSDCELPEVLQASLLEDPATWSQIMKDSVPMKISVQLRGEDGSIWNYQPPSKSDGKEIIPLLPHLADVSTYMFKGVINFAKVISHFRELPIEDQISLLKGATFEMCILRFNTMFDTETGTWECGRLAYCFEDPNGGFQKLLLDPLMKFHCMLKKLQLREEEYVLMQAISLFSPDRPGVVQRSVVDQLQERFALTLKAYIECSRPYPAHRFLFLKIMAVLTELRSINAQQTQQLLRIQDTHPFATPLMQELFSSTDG
assay_overview: Activation of rat PXR assessed as induction of PXR activity at 10 uM relative to control
protocol_conditions: read-out: Activity
parameter_measured: activity at 10 µM (%)

Example compounds with recorded activity at 10 µM:
O=C1N(C2CCCCC2)CC[C@]12C[C@@H](O)CN2Cc1ccc(Cl)cc1; 16
O=C1N(C2CCCCC2)CCC12C[C@@H](O)CN2Cc1ccc(Cl)cc1 (some centres not stated); 10
O=C1N([C@H]2CC[C@H](O)CC2)CCC12CCCN2Cc1ccc(Cl)cc1 (some centres not stated); 2

a = CC(C1CCCCC1)N1C[C@H](O)C[C@]12CCN(C1CCCCC1)C2=O (some centres not stated)
b = CCN1C[C@@H](O)C[C@]12CCN(C1CCCCC1)C2=O
INPUT: Kindly identify which of a and b has the larger recorded activity at 10 µM value. // return label of chosen record
OUTPUT: a

1 = O=C1N(C2CCCCC2)CC[C@]12C[C@H](F)CN2Cc1ccc(Cl)cc1
2 = CC(C1CC1)N1C[C@H](O)C[C@]12CCN(C1CCCCC1)C2=O (some centres not stated)
INPUT: Kindly identify which of 1 and 2 has the larger recorded activity at 10 µM value. // return label of chosen record
OUTPUT: 1
